# pKd annotations
Molecular target: SARS-CoV-2 S protein trimer (SARS-CoV-2, UniProt P0DTC2 14-1208)
Test: Carterra SPR, direct capture (DC), S trimer
# pKd = -log10(concentration in molar units)

The recorded pKd for entry 2-2 (antibody, V domains shown, also called variant 2-2) VH: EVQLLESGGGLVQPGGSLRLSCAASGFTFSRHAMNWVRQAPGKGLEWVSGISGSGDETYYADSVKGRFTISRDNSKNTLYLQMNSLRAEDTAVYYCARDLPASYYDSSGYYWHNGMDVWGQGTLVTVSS VL: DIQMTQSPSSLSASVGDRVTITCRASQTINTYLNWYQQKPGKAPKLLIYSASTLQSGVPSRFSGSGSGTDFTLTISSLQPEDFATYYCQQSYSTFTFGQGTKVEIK equals 8.85

Next:
The binder listed as 2-12 (antibody, V domains shown, also called variant 2-12) VH: EVQLLESGGGLVQPGGSLRLSCAASGFTFSDYPMNWVRQAPGKGLEWVSTISGSGGITFYADSVKGRFTISRDNSKNTLYLQMNSLRAEDTAVYYCVRHDEYSFDYWGQGTLVTVSS VL: DIQMTQSPSSLSASVGDRVTITCRASQSIDNYLNWYQQKPGKAPKLLIYGVSALQSGVPSRFSGSGSGTDFTLTISSLQPEDFATYYCQQSHSAPPYFFGQGTKVEIK has a reported pKd of 7.20

Looking up 2-5 (antibody, V domains shown, also called variant 2-5) VH: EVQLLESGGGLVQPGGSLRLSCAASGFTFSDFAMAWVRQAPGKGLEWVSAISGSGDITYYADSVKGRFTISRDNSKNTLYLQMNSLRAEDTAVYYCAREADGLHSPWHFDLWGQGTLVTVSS VL: DIQMTQSPSSLSASVGDRVTITCRASQSIHTYLNWYQQKPGKAPKLLIYAASALASGVPSRFSGSGSGTDFTLTISSLQPEDFATYYCQQSYSAPPYTFGQGTKVEIK , I found its pKd recorded as 7.76

Form field pKd, entry 2-8 (antibody, V domains shown, also called variant 2-8) VH: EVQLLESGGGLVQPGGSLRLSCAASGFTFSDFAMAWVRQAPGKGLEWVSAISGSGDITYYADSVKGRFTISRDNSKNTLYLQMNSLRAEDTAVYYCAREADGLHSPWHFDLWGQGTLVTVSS VL: DIQMTQSPSSLSASVGDRVTITCRASQSIDTYLNWYQQKPGKAPKLLIYAASALASGVPSRFSGSGSGTDFTLTISSLQPEDFATYYCQQSYSAPPYTFGQGTKVEIK : 7.32
